// reported PL for each item listed
- Organism: Rattus norvegicus
- protocol text: Open TG-GATES - Regimen: Single
- Format: toxicity, organism-based, Sprague-Dawley
- Design: regimen Single, gender Male, age 6 weeks
- run conditions: in vivo, po, 0 mg/kg, 24 h, tissue Plasma, route gavage, dose level Control
Write the number in mg/dL without appending the unit.

Below, 3 molecules whose answers are already recorded.
COc1ccc(O)c(C(C)(C)C)c1.COc1ccc(O)cc1C(C)(C)C [BUTYLATED HYDROXYANISOLE]; 136.6
O=C1NC(=O)C(c2ccccc2)(c2ccccc2)N1; 152
C=CCO; 147.6

Per the records, this molecule ( COc1ccc(Cl)cc1C(=O)NCCc1ccc(S(=O)(=O)NC(=O)NC2CCCCC2)cc1 [GLYBURIDE] ) has PL equal to 146.2

Per the records, this molecule ( `O=C1CN(/N=C/c2ccc(-c3ccc([N+](=O)[O-])cc3)o2)C(O)=N1` ) has PL equal to 144.2

Per the records, this molecule ( `Cc1cccc(Nc2cc(Cl)nc(SCC(=O)O)n2)c1C` ) has PL equal to 147

Per the records, this molecule ( S=C=Nc1cccc2ccccc12 [1-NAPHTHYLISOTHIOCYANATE] ) has PL equal to 140.4

Per the records, this molecule ( CS(=O)(=O)Nc1ccc([N+](=O)[O-])cc1Oc1ccccc1 [NIMESULIDE] ) has PL equal to 150.8

Per the records, this molecule ( `Cn1cnc([N+](=O)[O-])c1Sc1ncnc2nc[nH]c12` ) has PL equal to 156.8

====

- Species: Rattus norvegicus
- protocol text: Open TG-GATES - Regimen: Daily Repeat
- Assay type: toxicity, organism-based, Sprague-Dawley
- Design: regimen Daily Repeat, gender Male, age 6 weeks
- run conditions: in vivo, po, 0 mg/kg, […], tissue Blood, route gavage, dose level Control, time 7 day
metric: Plat (x10_4/uL)
Write the number in x10_4/uL without appending the unit.

O=C1CN(/N=C/c2ccc(-c3ccc([N+](=O)[O-])cc3)o2)C(O)=N1; 126.8
Cn1cnc([N+](=O)[O-])c1Sc1ncnc2nc[nH]c12; 123.7
CS(=O)(=O)Nc1ccc([N+](=O)[O-])cc1Oc1ccccc1 [NIMESULIDE]; 117.6
Cn1c(=O)c2c(ncn2C)n(C)c1=O; 116.2
Cc1cnc(NC(=O)C2=C(O)c3ccccc3S(=O)(=O)N2C)s1; 139.5
Cc1cccc(Nc2cc(Cl)nc(SCC(=O)O)n2)c1C; 127.6

Per the records, this compound ( `O=C1NC(=O)C(c2ccccc2)(c2ccccc2)N1` ) has Plat equal to 125.6

Per the records, this compound ( COc1ccc(O)c(C(C)(C)C)c1.COc1ccc(O)cc1C(C)(C)C [BUTYLATED HYDROXYANISOLE] ) has Plat equal to 135.8

Per the records, this compound ( `C=CCO` ) has Plat equal to 136

Per the records, this compound ( O=P1(N(CCCl)CCCl)NCCCO1 (stereo unspecified) [CYCLOPHOSPHAMIDE ANHYDROUS] ) has Plat equal to 112.1

Per the records, this compound ( COc1ccc(Cl)cc1C(=O)NCCc1ccc(S(=O)(=O)NC(=O)NC2CCCCC2)cc1 [GLYBURIDE] ) has Plat equal to 121.3

====

// reported MCH for each item listed
- Species on record: Rattus norvegicus
- protocol text: Open TG-GATES - Regimen: Single
- Type: toxicity, organism-based, Sprague-Dawley
- Design: regimen Single, gender Male, age 6 weeks
- run conditions: in vivo, po, 0 mg/kg, 24 h, tissue Blood, route gavage, dose level Control
Write the number in pg without appending the unit.

Below, 4 compounds whose answers are already recorded.
O=C1CN(/N=C/c2ccc(-c3ccc([N+](=O)[O-])cc3)o2)C(O)=N1; 21.9
S=C=Nc1cccc2ccccc12 [1-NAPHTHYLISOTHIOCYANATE]; 22.2
C=CCO; 20.5
COc1ccc(Cl)cc1C(=O)NCCc1ccc(S(=O)(=O)NC(=O)NC2CCCCC2)cc1 [GLYBURIDE]; 21.7

As a next step, examine the compound that follows.
Per the records, this compound ( `Cc1cnc(NC(=O)C2=C(O)c3ccccc3S(=O)(=O)N2C)s1` ) has MCH equal to 21.1

====

- Organism: Rattus norvegicus
- protocol text: Open TG-GATES - Regimen: Daily Repeat
- Type: toxicity, organism-based, Sprague-Dawley
- Design: regimen Daily Repeat, gender Male, age 6 weeks
- run conditions: in vivo, po, 0 mg/kg, […], tissue Blood, route gavage, dose level Control, time 7 day
metric: Mono (%)
Write the number in % without appending the unit.

O=P1(N(CCCl)CCCl)NCCCO1 (stereo not given) [CYCLOPHOSPHAMIDE ANHYDROUS]; 2.4
CS(=O)(=O)Nc1ccc([N+](=O)[O-])cc1Oc1ccccc1 [NIMESULIDE]; 9.4
O=C1CN(/N=C/c2ccc(-c3ccc([N+](=O)[O-])cc3)o2)C(O)=N1; 7.4
COc1ccc(O)c(C(C)(C)C)c1.COc1ccc(O)cc1C(C)(C)C [BUTYLATED HYDROXYANISOLE]; 2.5

Per the records, this compound ( `Cc1cnc(NC(=O)C2=C(O)c3ccccc3S(=O)(=O)N2C)s1` ) has Mono equal to 2.4

====

- Organism: Rattus norvegicus
- protocol text: Open TG-GATES - Regimen: Single
- Type: toxicity, organism-based, Sprague-Dawley
- Design: regimen Single, gender Male, age 6 weeks
- run conditions: in vivo, po, 0 mg/kg, 9 h, tissue Plasma, route gavage, dose level Control
// reported Cl for each item listed
Write the number in meq/L without appending the unit.

Per the records, this compound ( `Cc1cccc(Nc2cc(Cl)nc(SCC(=O)O)n2)c1C` ) has Cl equal to 103.6

Per the records, this compound ( `O=C1CN(/N=C/c2ccc(-c3ccc([N+](=O)[O-])cc3)o2)C(O)=N1` ) has Cl equal to 107.6

Per the records, this compound ( CS(=O)(=O)Nc1ccc([N+](=O)[O-])cc1Oc1ccccc1 [NIMESULIDE] ) has Cl equal to 106

====

// reported Neu for each item listed
- Organism: Rattus norvegicus
- protocol text: Open TG-GATES - Regimen: Daily Repeat
- Format: toxicity, organism-based, Sprague-Dawley
- Design: regimen Daily Repeat, gender Male, age 6 weeks
- run conditions: in vivo, po, 0 mg/kg, 72 h, tissue Blood, route gavage, dose level Control, time 3 day
Write the number in % without appending the unit.

Cn1cnc([N+](=O)[O-])c1Sc1ncnc2nc[nH]c12; 15.4
C=CCO; 16.6
COc1ccc(O)c(C(C)(C)C)c1.COc1ccc(O)cc1C(C)(C)C [BUTYLATED HYDROXYANISOLE]; 24.3
CS(=O)(=O)Nc1ccc([N+](=O)[O-])cc1Oc1ccccc1 [NIMESULIDE]; 14.8

As a next step, examine the molecule that follows.
Per the records, this molecule ( `Cn1c(=O)c2c(ncn2C)n(C)c1=O` ) has Neu equal to 15.6

====

- Organism: Rattus norvegicus
- protocol text: Open TG-GATES - Regimen: Daily Repeat
- Type: toxicity, organism-based, Sprague-Dawley
- Parameters: regimen Daily Repeat, gender Male, age 6 weeks
- run conditions: in vivo, po, 0 mg/kg, […], tissue Blood, route gavage, dose level Control, time 28 day
metric: PT (s)
Write the number in s without appending the unit.

Below, 5 compounds whose answers are already recorded.
O=C1NC(=O)C(c2ccccc2)(c2ccccc2)N1; 15.8
CS(=O)(=O)Nc1ccc([N+](=O)[O-])cc1Oc1ccccc1 [NIMESULIDE]; 11.7
Cn1c(=O)c2c(ncn2C)n(C)c1=O; 15.7
COc1ccc(O)c(C(C)(C)C)c1.COc1ccc(O)cc1C(C)(C)C [BUTYLATED HYDROXYANISOLE]; 12.3
COc1ccc(Cl)cc1C(=O)NCCc1ccc(S(=O)(=O)NC(=O)NC2CCCCC2)cc1 [GLYBURIDE]; 12.3

Per the records, this compound ( O=P1(N(CCCl)CCCl)NCCCO1 (stereo not given) [CYCLOPHOSPHAMIDE ANHYDROUS] ) has PT equal to 16.5

Per the records, this compound ( `C=CCO` ) has PT equal to 11.8

Per the records, this compound ( `Cn1cnc([N+](=O)[O-])c1Sc1ncnc2nc[nH]c12` ) has PT equal to 17.1

Per the records, this compound ( `Cc1cnc(NC(=O)C2=C(O)c3ccccc3S(=O)(=O)N2C)s1` ) has PT equal to 11.6

Per the records, this compound ( `Cc1cccc(Nc2cc(Cl)nc(SCC(=O)O)n2)c1C` ) has PT equal to 12.3

====

// reported TC for each item listed
- Species: Rattus norvegicus
- protocol text: Open TG-GATES - Regimen: Single
- Type: toxicity, organism-based, Sprague-Dawley
- Design: regimen Single, gender Male, age 6 weeks
- run conditions: in vivo, po, 0 mg/kg, 3 h, tissue Plasma, route gavage, dose level Control
Write the number in mg/dL without appending the unit.

Below, 6 compounds whose answers are already recorded.
COc1ccc(O)c(C(C)(C)C)c1.COc1ccc(O)cc1C(C)(C)C [BUTYLATED HYDROXYANISOLE]; 80.8
C=CCO; 83.8
Cn1cnc([N+](=O)[O-])c1Sc1ncnc2nc[nH]c12; 79
O=C1CN(/N=C/c2ccc(-c3ccc([N+](=O)[O-])cc3)o2)C(O)=N1; 75
Cc1cccc(Nc2cc(Cl)nc(SCC(=O)O)n2)c1C; 82.8
S=C=Nc1cccc2ccccc12 [1-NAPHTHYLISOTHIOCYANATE]; 81

Per the records, this compound ( `O=C1NC(=O)C(c2ccccc2)(c2ccccc2)N1` ) has TC equal to 75.8

Per the records, this compound ( CS(=O)(=O)Nc1ccc([N+](=O)[O-])cc1Oc1ccccc1 [NIMESULIDE] ) has TC equal to 75

Per the records, this compound ( COc1ccc(Cl)cc1C(=O)NCCc1ccc(S(=O)(=O)NC(=O)NC2CCCCC2)cc1 [GLYBURIDE] ) has TC equal to 88

Per the records, this compound ( `Cc1cnc(NC(=O)C2=C(O)c3ccccc3S(=O)(=O)N2C)s1` ) has TC equal to 79.6

FYI, the data here is from ChEMBL document CHEMBL3885861.
